A collection of compounds and their measured GI50
Tested on: SR
Assay: NCI tumour cell line growth inhibition, 48 h
Activity calls are given as the source filed them. Cut-off read from the data, not from the text of the source: active = GI50 up to about 1.1 µM and inactive = higher.

compound	GI50
c1ccc2c3c([nH]c2c1)C1c2[nH]c4ccccc4c2CCN1CC3	9.75 µM (inactive)
CSc1c(C(=O)Nc2ccc(C)cc2)c(N)nn1-c1ccccc1	9.89 µM (inactive)
Cc1ccc(/C=C2\CN(C)CC3C2=NC(=S)NC3c2ccc(C)cc2)cc1 (centres undefined)	29.9 µM (inactive)
COc1ccc(OC)c(C2CCc3nc4nc(N)nc(N)c4cc3C2)c1 (centres undefined)	2.48 µM (inactive)

====

Test system: HCT-116
Assay: NCI tumour cell line growth inhibition, 48 h
Active and inactive are the calls of the source. No stated cut-off is given here; in the data, active = GI50 up to about 1.1 µM and inactive = higher.
Outcome codes: TRUE for active, FALSE for inactive

molecule	label
CCCCCCCCCCCOC(=S)NC(C)C	FALSE
Nc1ccc(Cn2ccc3c4c(N)nc(N)nc4ccc32)cc1	TRUE
Cn1c(=O)c2ccccc2c2nc3ccccc3nc21	FALSE
C#CCNC(CS)C(=O)O (stereo unspecified)	FALSE
CC1=CC(=O)C(=C(C)C)CC1	FALSE
CCOC(=O)N/N=C(\Cc1ccccc1)OCC	FALSE
C[C@@H]1CCC([C@@H](C)[C@H]2CC[C@H]3[C@@H]4CC[C@H]5C[C@@H](O)CC[C@]5(C)[C@H]4CC[C@]23C)=NC1	FALSE
O=C(O)c1cnc2cc(OCc3ccccc3)ccc2c1O	FALSE
C=CC[C@H]1O[Si](C(C)(C)C)(C(C)(C)C)[C@H](C)[C@H]1C	FALSE
COC(=O)C1=C(\O)C[C@@]2(C)CC[C@@H](C(=O)OC)C2C/C=C\1C(=O)OC (stereo partly specified)	FALSE
CN(O)C(=O)c1ccc(OCc2cccc(Cl)c2)cc1	FALSE

====

Test system: A549
Assay: NCI tumour cell line growth inhibition, 48 h
Active and inactive are the calls of the source. Cut-off read from the data, not from the text of the source: active = GI50 up to about 1.1 µM and inactive = higher.
Outcome codes: True (active), False (inactive)

smiles.str	label
ClCC[N+]12CC[N+](CCCl)(CC1)C2	False
Cn1c(=O)c2ccccc2c2nc3ccccc3nc21	False
c1cc2nnc1SCCSCCSCCSc1ccc(nn1)SCCSCCSCCS2	False
CCOCC(=O)N[C@H]1CCc2cc(OC(=O)COCC)c(OC)c(OC)c2-c2ccc(SC)c(=O)cc21	True
O=C1c2scnc2-c2nccc3c2c1nc1ccccc13	False

====

System: MDA-N
Assay: NCI tumour cell line growth inhibition, 48 h
Calls of active or inactive are those of the source. Rule as the data show it: active = GI50 up to about 1.1 µM and inactive = higher.
quantity.measured: GI50

compound	observed
O=C(C1OC1c1ccc([N+](=O)[O-])cc1)C12CC3CC(CC(C3)C1)C2 (stereo not given)	11.6 µM (inactive)
C=C(O)c1ccccc1C#Cc1ccccc1C(=O)OC	> 10 µM (inactive)
COC(=O)c1ccccc1CC1Cc2ccc3c(c2C1=O)CCC3 (stereo not given)	33.5 µM (inactive)
Cc1cccc(-c2cc(=S)c3cc(N4CCCC4)ccc3[nH]2)c1	> 100 µM (inactive)
O=C1N=C(c2ccccc2)OC1C(=O)c1ccccc1 (stereo not given)	> 100 µM (inactive)
Cc1cc(N(CCC#N)CCC#N)ccc1/C=C1\SC(=S)NC1=O	> 100 µM (inactive)
NS(=O)(=O)c1ccc(NNc2c3ccccc3nc3c(C(=O)Nc4ccc(S(=O)(=O)Nc5ncccn5)cc4)cccc23)cc1	> 25 µM (inactive)
O=C1NN=C(O)C2C3c4ccccc4C(c4ccccc43)C12 (stereo not given)	> 100 µM (inactive)
O=C(Nc1cccc([N+](=O)[O-])c1)c1nnn(-c2cccc([N+](=O)[O-])c2)c1O	> 100 µM (inactive)
O=C(O)/C=C/C(=O)N1Cc2cc3ccccc3nc2C1	> 100 µM (inactive)
COc1ccc(OC)c(C2CCc3nc4nc(N)nc(N)c4cc3C2)c1 (stereo not given)	2.13 µM (inactive)
CC(C)(C)OC(=O)NC(Cc1ccc(O)cn1)C(N)=O (stereo not given)	> 100 µM (inactive)
CC1(c2ccc(Cl)cc2)N=C(NCCO)c2ccccc21 (stereo not given)	10.7 µM (inactive)
O=C1C=CC[C@H](/C=C/C[C@@H](O)C[C@H](O)/C=C/c2ccccc2)O1	12.4 µM (inactive)
O=C1OC[C@@H]2[C@@H](O)CCCCCN12	> 100 µM (inactive)

Where these numbers come from: ChEMBL document CHEMBL1201862
